Data provenance: ChEMBL document CHEMBL4118096

System: Aspergillus niger
Assay notes: Antifungal activity against Aspergillus niger measured on day 4 by broth microdilution method
Format: functional
Setup conditions: 96 h
Where a SMILES comes first, the peptide text is derived from it. The star is where a group is joined. Benzoyl(4-B(OH)2) = O=C(c1ccc(B(O)O)cc1)*; Acridin9yl = c1ccc2c(*)c3ccccc3nc2c1; Bz = O=C(c1ccccc1)*
Measurement type: MIC (mg/L)
Return type: number; implicit unit mg/L.

The following compounds have reported results that may help.
Compound	Unit name	MIC
CC(C)C[C@H](NC(=O)[C@H](CCCCNC(=O)c1ccccc1)NC(=O)[C@H](CCCCN)NC(=O)[C@H](CCCCN)NC(=O)[C@H](CCCCN)NC(=O)[C@H](CCCCN)NC(=O)[C@H](CCCCN)NC(=O)[C@@H](N)CCCCN)C(=O)N[C@@H](CCCCN)C(=O)N[C@@H](Cc1ccc(O)cc1)C(=O)O (H-KKKKKKK(Bz)LKY-OH)	mg/L	125
CC(C)C[C@H](NC(=O)[C@H](CCCCN)NC(=O)[C@H](CCCCN)NC(=O)[C@H](CCCCN)NC(=O)[C@H](CCCCN)NC(=O)[C@H](CCCCN)NC(=O)[C@@H](N)CCCCN)C(=O)N[C@@H](CCCCNC(=O)c1ccc(B(O)O)cc1)C(=O)N[C@@H](CCCCNC(=O)c1ccc(B(O)O)cc1)C(=O)N[C@@H](Cc1ccc(O)cc1)C(=O)O (H-KKKKKKLK(Benzoyl(4-B(OH)2))K(Benzoyl(4-B(OH)2))Y-OH)	mg/L	62.5
CC(C)C[C@H](NC(=O)[C@H](CCCCN)NC(=O)[C@H](CCCCNC(=O)c1ccc(B(O)O)cc1)NC(=O)[C@H](CCCCN)NC(=O)[C@H](CCCCN)NC(=O)[C@H](CCCCNC(=O)c1ccc(B(O)O)cc1)NC(=O)[C@H](CCCCN)NC(=O)[C@@H](N)CCCCN)C(=O)N[C@@H](CCCCNC(=O)c1ccc(B(O)O)cc1)C(=O)N[C@@H](Cc1ccc(O)cc1)C(=O)O (H-KKK(Benzoyl(4-B(OH)2))KKK(Benzoyl(4-B(OH)2))KLK(Benzoyl(4-B(OH)2))Y-OH)	mg/L	125

Specify MIC for CC(C)C[C@H](NC(=O)[C@H](CCCCNC(=O)c1ccc(B(O)O)cc1)NC(=O)[C@H](CC(C)C)NC(=O)[C@H](CCCCN)NC(=O)[C@H](CCCCN)NC(=O)[C@H](CCCCN)NC(=O)[C@H](CCCCN)NC(=O)[C@H](CCCCN)NC(=O)[C@@H](N)CCCCN)C(=O)N[C@@H](Cc1ccc(O)cc1)C(=O)O (H-KKKKKKLK(Benzoyl(4-B(OH)2))LY-OH) , system Aspergillus niger.
62.5

Specify MIC for CC(C)C[C@H](NC(=O)[C@H](CCCCNc1c2ccccc2nc2ccccc12)NC(=O)[C@H](CCCCN)NC(=O)[C@H](CCCCN)NC(=O)[C@H](CCCCN)NC(=O)[C@H](CCCCN)NC(=O)[C@H](CCCCN)NC(=O)[C@@H](N)CCCCN)C(=O)N[C@@H](CCCCN)C(=O)N[C@@H](Cc1ccc(O)cc1)C(=O)O (H-KKKKKKK(Acridin9yl)LKY-OH) , system Aspergillus niger.
62.5

Specify MIC for NCCCC[C@H](NC(=O)[C@H](CCCCNc1c2ccccc2nc2ccccc12)NC(=O)[C@H](CCCCNc1c2ccccc2nc2ccccc12)NC(=O)[C@H](CCCCN)NC(=O)[C@H](CCCCN)NC(=O)[C@H](CCCCN)NC(=O)[C@H](CCCCN)NC(=O)[C@H](CCCCN)NC(=O)[C@@H](N)CCCCN)C(=O)N[C@@H](Cc1ccc(O)cc1)C(=O)O (H-KKKKKKK(Acridin9yl)K(Acridin9yl)KY-OH) , system Aspergillus niger.
62.5
